- target_or_system: menin/MLL (Gal4-Menin and MLL1-46-VP16) in HEK293 cells (Homo sapiens, UniProt O00255)
- Sequence (O00255 whole entry, species assumed, the tested form may be a part): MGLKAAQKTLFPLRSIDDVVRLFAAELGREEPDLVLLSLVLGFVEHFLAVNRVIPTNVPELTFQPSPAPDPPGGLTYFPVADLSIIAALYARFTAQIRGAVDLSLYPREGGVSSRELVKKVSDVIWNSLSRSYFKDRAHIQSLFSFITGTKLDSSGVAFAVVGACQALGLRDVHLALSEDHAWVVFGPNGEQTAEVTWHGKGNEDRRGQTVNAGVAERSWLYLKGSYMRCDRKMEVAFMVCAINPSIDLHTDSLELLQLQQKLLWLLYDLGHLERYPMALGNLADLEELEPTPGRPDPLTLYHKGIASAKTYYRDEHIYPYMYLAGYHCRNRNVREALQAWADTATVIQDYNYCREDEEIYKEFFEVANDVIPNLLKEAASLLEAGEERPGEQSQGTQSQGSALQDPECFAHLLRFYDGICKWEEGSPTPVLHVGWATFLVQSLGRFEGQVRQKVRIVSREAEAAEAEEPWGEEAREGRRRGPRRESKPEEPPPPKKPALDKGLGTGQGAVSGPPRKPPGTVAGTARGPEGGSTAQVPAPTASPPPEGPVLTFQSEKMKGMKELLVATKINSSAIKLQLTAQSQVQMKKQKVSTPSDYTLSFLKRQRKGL
- Sequence (P04386 1-147 partner limits assumed, species assumed): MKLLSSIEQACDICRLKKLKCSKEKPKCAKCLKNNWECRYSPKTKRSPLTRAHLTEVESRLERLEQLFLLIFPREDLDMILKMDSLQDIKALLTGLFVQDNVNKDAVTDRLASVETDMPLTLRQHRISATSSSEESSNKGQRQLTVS
- protocol_details: Mammalian cellular two-hybrid assay in HEK293 cells (Assay 2, cell assay)
- condition_info: Gal4-Menin/MLL1-46-VP16 two-hybrid, NanoLuc luciferase reporter, 16-18 h
observable: IC50

Worked set:
>  <compound>
CCC(C)CN1CC2(CCN(c3ncnc4sc(CC(F)(F)F)cc34)CC2)C1 (centres unmarked)

>  <IC50>
≥ 1000 nM

$$$$
>  <compound>
CC(C)(N)C(=O)N1CCC2(CCN(c3ncnc4sc(CC(F)(F)F)cc34)C2)C1 (centres unmarked)

>  <IC50>
100 to 1000 nM

$$$$
>  <compound>
CS(=O)(=O)N[C@H]1CC[C@H](CN2CCC3(CC2)CN(c2ncnc4sc(CC(F)(F)F)cc24)C3)CC1

>  <IC50>
100 to 1000 nM

$$$$
>  <compound>
Cc1c(CN2CCC3(CCN(c4ncnc5sc(CC(F)(F)F)cc45)C3)C2)ccc2[nH]c(C#N)cc12 (racemic) [Example 30]

>  <IC50>
< 100 nM

$$$$
>  <compound>
CC(=O)Nc1ccc(CN2CCC3(CCN(c4ncnc5sc(CC(F)(F)F)cc45)C3)C2)c(F)c1 (centres unmarked)

>  <IC50>
100 to 1000 nM

$$$$

Prompt line: Give the reported IC50 for this compound. CS(=O)(=O)Nc1ccc(CN2CCC3(CCN(c4ncnc5sc(CC(F)(F)F)cc45)C3)C2)cc1 (centres unmarked)
Response line: 100 to 1000 nM

Prompt line: Supply reported IC50 belonging to this compound: N#Cc1ccc2c(CN3CC4(CCN(c5ncnc6sc(CC(F)(F)F)cc56)CC4)C3)c[nH]c2c1
Response line: ≥ 1000 nM

Prompt line: Specify IC50 for FC(F)(F)Cc1cc2c(N3CCC4(CCN(Cc5ccc6cc[nH]c6c5)C4)C3)ncnc2s1 (centres unmarked) and stop.
Response line: 100 to 1000 nM

----------
Items are presented alongside their recorded pIC50.
- target_or_system: wild-type menin / MLL-AF9 fusion protein (Homo sapiens, UniProt O00255)
- Construct: HEK293 cleared lysate (MLL-AF9-FLAG)
- Sequence (O00255 whole entry, species assumed, the tested form may be a part): as the sequence (O00255 whole entry, species assumed, the tested form may be a part) above
- protocol_details: AlphaLISA menin/MLL binding assay, wild-type menin (Assay 1)
- condition_info: biotinylated wild-type menin 5 nM, MLL-AF9-FLAG lysate
pIC50: −log10 of the molar value.

// below: answered compounds
>  <compound>
CC(=O)N[C@H]1CC[C@H](CN2CCC3(CC2)CN(c2ncnc4sc(CC(F)(F)F)cc24)C3)CC1

>  <pIC50>
6.00 to 7.00

$$$$
>  <compound>
CC(=O)Nc1ccc(CN2CCC3(CCN(c4ncnc5sc(CC(F)(F)F)cc45)C3)C2)c(Cl)c1 (centres unmarked)

>  <pIC50>
> 7.00

$$$$
>  <compound>
FC(F)(F)Cc1cc2c(N3CCC4(CCN(Cc5ccccc5)CC4)C3)ncnc2s1

>  <pIC50>
≤ 6.00

$$$$

Prompt line: # assay system wild-type menin / MLL-AF9 fusion protein (Homo sapiens, UniProt O00255): give pIC50 of O=C(C1CCCNC1)N1CC2(C1)CN(c1ncnc3sc(CC(F)(F)F)cc13)C2 (centres unmarked)
Response line: 6.00 to 7.00

Prompt line: Answer with pIC50 of O=C(C1CCCCN1)N1CCC2(CCN(c3ncnc4sc(CC(F)(F)F)cc34)C2)C1 (centres unmarked) measured for wild-type menin / MLL-AF9 fusion protein (Homo sapiens, UniProt O00255).
Response line: 6.00 to 7.00

Prompt line: Consider the compound FC(F)(F)Cc1cc2c(N3CCC4(CC3)CN(CC3CCCCO3)C4)ncnc2s1 (centres unmarked) tested on wild-type menin / MLL-AF9 fusion protein (Homo sapiens, UniProt O00255); state its pIC50.
Response line: ≤ 6.00

Prompt line: Give measured pIC50 for FC(F)(F)Cc1cc2c(N3CC4(CCN(CC5CCOCC5)C4)C3)ncnc2s1 (wild-type menin / MLL-AF9 fusion protein (Homo sapiens, UniProt O00255)).
Response line: > 7.00

Prompt line: // fetch pIC50 for CC(C)CN1CCC2(CCN(c3ncnc4sc(CC(F)(F)F)cc34)CC2)C1 ; system: wild-type menin / MLL-AF9 fusion protein (Homo sapiens, UniProt O00255)
Response line: 6.00 to 7.00

----------
# pIC50 per record follows
- target_or_system: mutated menin / MLL-AF9 fusion protein (Homo sapiens)
- Construct: biotinylated (1) wild-type menin or (2) mutated menin (described in Nature (2012) Vol. 482, pp. 542-548); fused on or other part: Biotin attached chemically with Sulfo-NHS-Biotin; This is a label, not a fusion
- protocol_details: AlphaLISA menin/MLL binding assay, mutated menin (Assay 1)
- condition_info: biotinylated mutated menin 5 nM, MLL-AF9-FLAG lysate, read-out: Assay 1 Mutant Menin IC50
pIC50: −log10 of the molar value.

The following compounds have reported results that may help.
>  <structure_notation>
CC1(C)CN=C(N2CC3(C2)CN(c2ncnc4ccc(OC(F)(F)F)cc24)C3)S1

>  <target_or_system>
mutated menin / MLL-AF9 fusion protein (Homo sapiens)

>  <pIC50>
≤ 6.00

$$$$
>  <structure_notation>
CC1(C)CN=C(N2CC3(CCN(c4ncnc5sc(CC(F)(F)F)cc45)CC3)C2)S1

>  <target_or_system>
mutated menin / MLL-AF9 fusion protein (Homo sapiens)

>  <pIC50>
6.00 to 7.00

$$$$
>  <structure_notation>
CC(C)N1CCC2(CCN(c3ncnc4sc(CC(F)(F)F)cc34)CC2)C1

>  <target_or_system>
mutated menin / MLL-AF9 fusion protein (Homo sapiens)

>  <pIC50>
6.00 to 7.00

$$$$

Could you now consider this next compound?
Prompt line: Assign pIC50 to the following record: CC1(C)CN=C(N2CCC3(CCN(c4ncnc5sc(CC(F)(F)F)cc45)CC3)C2)S1
Response line: 6.00 to 7.00

----------
The compounds listed here are annotated with their pIC50.
- target_or_system: wild-type menin / MLL-AF9 fusion protein (Homo sapiens, UniProt O00255)
- Construct: HEK293 cleared lysate (MLL-AF9-FLAG)
- protocol_details: AlphaLISA menin/MLL binding assay, wild-type menin (Assay 1)
- condition_info: biotinylated wild-type menin 5 nM, MLL-AF9-FLAG lysate
pIC50: −log10 of the molar value.

>  <compound>
Cc1c(CN2CC3(CCN(c4ncnc5sc(CC(F)(F)F)cc45)C3)C2)ccc2[nH]c(C#N)cc12

>  <pIC50>
6.00 to 7.00

$$$$
>  <compound>
CC(C)CN1CC2(CCN(c3ccnc4ccc(CC(F)(F)F)cc34)CC2)C1

>  <pIC50>
≤ 6.00

$$$$
>  <compound>
CC(C)(N)CC(=O)N1CC2(C1)CN(c1ncnc3sc(CC(F)(F)F)cc13)C2

>  <pIC50>
6.00 to 7.00

$$$$

Now for a further compound.
Prompt line: Look up and report measured pIC50 for this entry: FC(F)(F)Cc1cc2c(N3CCC4(CCN(Cc5ccc6[nH]ccc6c5)C4)C3)ncnc2s1 (stereo not shown)
Response line: > 7.00

----------
- target_or_system: wild-type menin / MLL-AF9 fusion protein (Homo sapiens, UniProt O00255)
- Construct: HEK293 cleared lysate (MLL-AF9-FLAG)
- protocol_details: AlphaLISA menin/MLL binding assay, wild-type menin (Assay 1)
- condition_info: biotinylated wild-type menin 5 nM, MLL-AF9-FLAG lysate
observable: IC50

Study these solved cases before continuing.
>  <compound>
CC(C)CN1CCC2(CC1)CCN(c1ncnc3sc(CC(F)(F)F)cc13)C2 [Example 113]

>  <IC50>
100 to 1000 nM

$$$$
>  <compound>
CCC(C)CN1CCC2(C1)CN(c1ncnc3sc(CC(F)(F)F)cc13)C2 (stereo not shown) [Example 94]

>  <IC50>
100 to 1000 nM

$$$$
>  <compound>
FC(F)(F)Cc1cc2c(N3CCC4(CC3)CN(CC3CCCOC3)C4)ncnc2s1 (stereo not shown) [Example 7]

>  <IC50>
≥ 1000 nM

$$$$
>  <compound>
CC(C)(N)CC(=O)N1CC2(CCN(c3ncnc4sc(CC(F)(F)F)cc34)CC2)C1 [Example 17]

>  <IC50>
≥ 1000 nM

$$$$
>  <compound>
COC(=O)N[C@H]1CC[C@H](CN2CCC3(CC2)CN(c2ncnc4sc(CC(F)(F)F)cc24)C3)CC1 [Example 107]

>  <IC50>
< 100 nM

$$$$
>  <compound>
COC1CC(CN2CC3(CCN(c4ncnc5sc(CC(F)(F)F)cc45)CC3)C2)C1 (stereo not shown) [Example 13]

>  <IC50>
≥ 1000 nM

$$$$
>  <compound>
CC(=O)Nc1ccc(CN2CCC3(CCN(c4ncnc5sc(CC(F)(F)F)cc45)C3)C2)c(F)c1 (stereo not shown) [Example 45]

>  <IC50>
< 100 nM

$$$$
>  <compound>
CC(=O)N[C@H]1CC[C@H](CN2CCC3(CCN(c4ncnc5sc(CC(F)(F)F)cc45)C3)C2)CC1 (stereo partly shown) [Example 47]

>  <IC50>
100 to 1000 nM

$$$$

Pending compound:
Prompt line: Provide one value: measured IC50 of O=C1N(Cc2ccccc2)CCC12CCN(c1ncnc3sc(CC(F)(F)F)cc13)C2 (stereo not shown) [Example 59]
Response line: ≥ 1000 nM
